B1: CHIT1 (parent)
chain: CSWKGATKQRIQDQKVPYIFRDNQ

Variants of: B1
method description: protein stability index of a GFP-peptide fusion (GPS, HEK-293T) (PSI 1-6); higher = more stable;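 note: lentivirally expressed fusions sorted by FACS into six bins by GFP to DsRed ratio, PSI derived from sequencing read proportions per bin multiplied by bin number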
setup conditions: c terminus: a fixed tail appended
Class 1: protein stability index at least 3. Class -1: protein stability index below 3.

variant_designation=W3M qualitative_label=-1
variant_designation=A6W qualitative_label=1
variant_designation=Q24V qualitative_label=-1
variant_designation=P17Q qualitative_label=-1
variant_designation=T7F qualitative_label=-1
variant_designation=K15P qualitative_label=1
variant_designation=D22P qualitative_label=-1
variant_designation=Y18G qualitative_label=1
variant_designation=K15Q qualitative_label=-1
variant_designation=I11M qualitative_label=-1
variant_designation=A6H qualitative_label=-1
variant_designation=P17H qualitative_label=-1
variant_designation=C1R qualitative_label=-1
variant_designation=W3A qualitative_label=-1
variant_designation=P17K qualitative_label=-1
variant_designation=P17G qualitative_label=-1
variant_designation=Q14A qualitative_label=1
variant_designation=D13S qualitative_label=-1
variant_designation=R21P qualitative_label=1
variant_designation=Q9M qualitative_label=-1
variant_designation=R21I qualitative_label=-1
variant_designation=R10Y qualitative_label=-1
variant_designation=R10K qualitative_label=-1
variant_designation=A6T qualitative_label=-1
variant_designation=K4C qualitative_label=-1
variant_designation=A6F qualitative_label=-1
variant_designation=Q9D qualitative_label=-1
variant_designation=Q9P qualitative_label=-1
variant_designation=A6M qualitative_label=-1
variant_designation=T7E qualitative_label=1
variant_designation=Q9W qualitative_label=-1
variant_designation=C1I qualitative_label=-1
variant_designation=K8I qualitative_label=-1
variant_designation=I11L qualitative_label=1
variant_designation=Q12E qualitative_label=-1
variant_designation=S2T qualitative_label=-1
variant_designation=Y18A qualitative_label=-1
variant_designation=Q12Y qualitative_label=-1
variant_designation=A6K qualitative_label=-1
variant_designation=C1L qualitative_label=-1
variant_designation=G5D qualitative_label=-1
variant_designation=G5Y qualitative_label=-1
variant_designation=N23E qualitative_label=-1
